# ASSAY_TARGET: Acetylcholinesterase (Homo sapiens) (UniProt P22303)
# Sequence (P22303 whole entry, looked up): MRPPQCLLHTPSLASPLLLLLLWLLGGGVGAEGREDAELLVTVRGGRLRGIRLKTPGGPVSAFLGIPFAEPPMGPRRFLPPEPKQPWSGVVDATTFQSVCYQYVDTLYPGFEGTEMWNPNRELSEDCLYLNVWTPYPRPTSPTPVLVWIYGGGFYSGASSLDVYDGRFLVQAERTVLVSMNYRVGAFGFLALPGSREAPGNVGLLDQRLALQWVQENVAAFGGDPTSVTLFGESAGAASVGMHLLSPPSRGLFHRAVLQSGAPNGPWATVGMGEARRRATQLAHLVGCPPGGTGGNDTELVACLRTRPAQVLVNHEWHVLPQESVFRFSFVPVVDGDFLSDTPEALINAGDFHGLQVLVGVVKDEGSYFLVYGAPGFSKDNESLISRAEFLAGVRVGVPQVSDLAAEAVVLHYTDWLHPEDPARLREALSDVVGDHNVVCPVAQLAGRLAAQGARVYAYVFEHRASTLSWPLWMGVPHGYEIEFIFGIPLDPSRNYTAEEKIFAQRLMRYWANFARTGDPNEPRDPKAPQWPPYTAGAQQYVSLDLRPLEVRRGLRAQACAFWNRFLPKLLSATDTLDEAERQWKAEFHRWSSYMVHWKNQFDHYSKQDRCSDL
# TEST_SUMMARY: Acetylcholinesterase (AChE) small molecule antagonists: fluorescence cell-based qHTS assay (AID 1347398); note: nearly all actives have a fitted effect of over 50% in size
# CONDITION: SH-SY5Y cells; AChE activity; series mostly up to 115 µM
Records with an inconclusive call do not appear. Activity calls are given as the source filed them. Calls come from the whole dose curve.
Classes used: 1 (active), 0 (inactive)

{"MOLECULE": "CS(=O)(=O)c1cc(C(F)(F)F)ccc1C(=O)c1cnoc1C1CC1", "CAT": 0}
{"MOLECULE": "CC1CCC(=O)O1 (stereo not drawn)", "CAT": 0}
{"MOLECULE": "CCCCN(CCCCO)N=O", "CAT": 0}
{"MOLECULE": "CC(Cl)(Cl)[N+](=O)[O-]", "CAT": 0}
{"MOLECULE": "CCC(=O)c1ccccc1", "CAT": 0}
{"MOLECULE": "C[C@@H]1CN(C2CCC(C#N)(c3ccc(F)cc3)CC2)CC[C@]1(C(=O)O)c1ccccc1 (stereo partly drawn)", "CAT": 0}
{"MOLECULE": "O=[N+]([O-])c1cccc2cccnc12", "CAT": 0}
{"MOLECULE": "CC(C(=O)c1ccccc1)N(C)C (stereo not drawn)", "CAT": 0}
{"MOLECULE": "C1CCC(C2CCCCC2)CC1", "CAT": 0}
{"MOLECULE": "CC(=O)[C@H]1CC[C@H]2[C@@H]3CC[C@H]4C[C@H](O)CC[C@]4(C)[C@H]3C(=O)C[C@]12C", "CAT": 0}
{"MOLECULE": "COC(=O)c1ccccc1S(=O)(=O)NC(=O)N(C)c1nc(C)nc(OC)n1", "CAT": 0}
{"MOLECULE": "CCCCOP(=O)(O)OCCCC", "CAT": 0}
{"MOLECULE": "COc1ccc2c(c1OC)CN1CCc3cc4c(cc3C1C2)OCO4 (stereo not drawn)", "CAT": 1}

###

# ASSAY_TARGET: Estrogen receptor (Homo sapiens) (UniProt P03372)
# Sequence (P03372 whole entry, looked up): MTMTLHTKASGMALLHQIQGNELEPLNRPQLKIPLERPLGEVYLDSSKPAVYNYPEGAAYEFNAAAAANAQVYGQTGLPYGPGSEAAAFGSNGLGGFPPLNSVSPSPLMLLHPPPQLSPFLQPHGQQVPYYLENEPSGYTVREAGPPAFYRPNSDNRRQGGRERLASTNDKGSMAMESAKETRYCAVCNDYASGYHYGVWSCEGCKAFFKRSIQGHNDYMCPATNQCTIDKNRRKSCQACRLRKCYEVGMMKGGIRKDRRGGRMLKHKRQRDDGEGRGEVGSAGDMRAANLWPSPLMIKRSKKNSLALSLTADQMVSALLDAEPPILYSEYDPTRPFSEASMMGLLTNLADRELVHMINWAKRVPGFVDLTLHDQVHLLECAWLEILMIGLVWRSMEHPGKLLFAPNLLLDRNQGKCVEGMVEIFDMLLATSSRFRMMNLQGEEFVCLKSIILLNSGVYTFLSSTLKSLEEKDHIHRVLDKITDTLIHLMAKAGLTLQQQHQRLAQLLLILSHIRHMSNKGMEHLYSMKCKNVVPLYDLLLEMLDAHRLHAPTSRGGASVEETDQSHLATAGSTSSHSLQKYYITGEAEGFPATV
# TEST_SUMMARY: qHTS assay to identify small molecule agonists of the estrogen receptor alpha (ER-alpha) signaling pathway (AID 743075);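 note: HEK293 GripTite cells with ER-alpha and UAS-driven beta-lactamase reporter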
# CONDITION: HEK293 ER-alpha-UAS-bla, beta-lactamase FRET ratio, 18 h; series mostly up to 70.1 µM
Inconclusive results are not listed. Active and inactive are the calls of the source. The call rests on the fitted dose curve.
REPORTED_ENDPOINT: outcome

{"COMPOUND": "CC(=O)CCc1ccc2c(c1)OCO2", "ASSAY_TARGET": "Estrogen receptor (Homo sapiens) (UniProt P03372)", "REPORTED_ENDPOINT": "outcome", "RESULT": "inactive"}
{"COMPOUND": "Clc1cccc(N2CCNCC2)c1", "ASSAY_TARGET": "Estrogen receptor (Homo sapiens) (UniProt P03372)", "REPORTED_ENDPOINT": "outcome", "RESULT": "inactive"}
{"COMPOUND": "CCOP(=S)(OCC)Oc1ncn(-c2ccccc2)n1", "ASSAY_TARGET": "Estrogen receptor (Homo sapiens) (UniProt P03372)", "REPORTED_ENDPOINT": "outcome", "RESULT": "inactive"}
{"COMPOUND": "O=C(Oc1ccc(Br)cc1)N1CCN2CCC1CC2", "ASSAY_TARGET": "Estrogen receptor (Homo sapiens) (UniProt P03372)", "REPORTED_ENDPOINT": "outcome", "RESULT": "inactive"}
{"COMPOUND": "CCOP(=S)(OCC)SCSc1ccc(Cl)cc1", "ASSAY_TARGET": "Estrogen receptor (Homo sapiens) (UniProt P03372)", "REPORTED_ENDPOINT": "outcome", "RESULT": "inactive"}
{"COMPOUND": "Fc1ccc(C2(Cn3cncn3)OC2c2ccccc2Cl)cc1 (configuration not stated)", "ASSAY_TARGET": "Estrogen receptor (Homo sapiens) (UniProt P03372)", "REPORTED_ENDPOINT": "outcome", "RESULT": "inactive"}
{"COMPOUND": "N#CC(CCc1ccc(Cl)cc1)(Cn1cncn1)c1ccccc1 (configuration not stated)", "ASSAY_TARGET": "Estrogen receptor (Homo sapiens) (UniProt P03372)", "REPORTED_ENDPOINT": "outcome", "RESULT": "inactive"}

###

# TEST_SUMMARY: qHTS assay to identify small molecule antagonists of the androgen receptor (AR) signaling pathway - cell viability counter screen (AID 743033; note: nearly all actives have a fitted effect of over 45% in size)
# CONDITION: AR-bla HEK293 viability, CellTiter-Glo luminescence, 16 h; series mostly up to 58.5 µM
Results filed as inconclusive are left out. Calls of active or inactive are those of the source. Calls follow the shape of the dose curve; as a rule, active = well fitted cell-killing curve with a large enough effect in the repeat runs; inconclusive = weak or mixed curves; inactive = no such curve, though single readings can be large or run the other way.
Labels: TRUE for active, FALSE for inactive

{"COMPOUND": "COc1cc(OC)nc(NC(=O)NS(=O)(=O)c2ncccc2OCC(F)(F)F)n1", "CAT": "FALSE"}
{"COMPOUND": "CCCSP(=O)(OCC)Oc1ccc(Br)cc1Cl (stereo not given)", "CAT": "FALSE"}
{"COMPOUND": "CCCCN(CCCCO)N=O", "CAT": "FALSE"}
{"COMPOUND": "O=CNC(N1CCN(C(NC=O)C(Cl)(Cl)Cl)CC1)C(Cl)(Cl)Cl (stereo not given)", "CAT": "FALSE"}
{"COMPOUND": "COc1ccc2c(c1OC)CN1CCc3cc4c(cc3C1C2)OCO4 (stereo not given)", "CAT": "FALSE"}
{"COMPOUND": "N#CCNCC#N", "CAT": "FALSE"}
{"COMPOUND": "Cc1cc(C)c(C(=O)P(=O)(C(=O)c2c(C)cc(C)cc2C)c2ccccc2)c(C)c1", "CAT": "FALSE"}
{"COMPOUND": "CCCCCCI", "CAT": "FALSE"}
{"COMPOUND": "COC(=O)c1ccccc1S(=O)(=O)NC(=O)N(C)c1nc(C)nc(OC)n1", "CAT": "FALSE"}
{"COMPOUND": "O=NN1CCCCC1", "CAT": "FALSE"}
{"COMPOUND": "Cc1ncc(CNC(=O)N(CCCl)N=O)c(N)n1", "CAT": "FALSE"}
{"COMPOUND": "[As]#[In]", "CAT": "FALSE"}
{"COMPOUND": "CCCCOC(=O)[C@@H](C)Oc1ccc(Oc2ccc(C#N)cc2F)cc1", "CAT": "FALSE"}
{"COMPOUND": "CCOC(=O)CP(=O)(OCC)OCC", "CAT": "FALSE"}
{"COMPOUND": "COC(=O)C(C)Oc1ccc(Oc2ccc(Cl)cc2Cl)cc1 (stereo not given)", "CAT": "FALSE"}
{"COMPOUND": "CSc1ccc(C(=O)C(C)(C)N2CCOCC2)cc1", "CAT": "FALSE"}
{"COMPOUND": "CCCCC(=O)Cl", "CAT": "FALSE"}
{"COMPOUND": "Nc1cnn(-c2ccccc2)c(=O)c1Cl", "CAT": "FALSE"}
{"COMPOUND": "CN1C[C@@H](NS(=O)(=O)N(C)C)C[C@@H]2c3cccc4c3c(cn4C)C[C@H]21", "CAT": "FALSE"}
{"COMPOUND": "CN1CCC(O)(c2ccc(F)cc2)C(C(=O)c2ccc(F)cc2)C1 (stereo not given)", "CAT": "FALSE"}
{"COMPOUND": "N#CC(CCc1ccc(Cl)cc1)(Cn1cncn1)c1ccccc1 (stereo not given)", "CAT": "TRUE"}
{"COMPOUND": "CC(C)CC(N(C)C)C1(c2ccc(Cl)cc2)CCC1 (stereo not given)", "CAT": "FALSE"}
{"COMPOUND": "CC(COc1ccc(Oc2ccccc2)cc1)Oc1ccccn1 (stereo not given)", "CAT": "FALSE"}
{"COMPOUND": "CCOP(=O)(OCC)OP(=O)(OCC)OCC", "CAT": "FALSE"}
{"COMPOUND": "CCCSP(=S)(OCC)Oc1ccc(Cl)cc1Cl (stereo not given)", "CAT": "FALSE"}
{"COMPOUND": "N#CCCC#N", "CAT": "FALSE"}
{"COMPOUND": "Cc1ncc2n1-c1ccc(Cl)cc1C(c1ccccc1F)=NC2", "CAT": "FALSE"}
{"COMPOUND": "NC(=O)O", "CAT": "FALSE"}
{"COMPOUND": "O=C(O)C(Br)CBr (stereo not given)", "CAT": "FALSE"}
{"COMPOUND": "O=NN1CCN(N=O)CC1", "CAT": "FALSE"}
{"COMPOUND": "O=P(O)(Oc1ccccc1)Oc1ccccc1", "CAT": "FALSE"}
{"COMPOUND": "CCN(CC)C(C)C(=O)c1ccccc1 (stereo not given)", "CAT": "FALSE"}
{"COMPOUND": "O=[N+]([O-])c1cc(Cl)c(Cl)c(Cl)c1", "CAT": "FALSE"}
{"COMPOUND": "CC(C=O)Cc1ccc2c(c1)OCO2 (stereo not given)", "CAT": "FALSE"}
{"COMPOUND": "CCOP(=S)(OCC)Oc1cc(-c2ccccc2)on1", "CAT": "FALSE"}
{"COMPOUND": "C#CCN1C(=O)COc2cc(F)c(N3C(=O)C4=C(CCCC4)C3=O)cc21", "CAT": "FALSE"}
{"COMPOUND": "CC(C)CP(=S)(S)CC(C)C", "CAT": "TRUE"}
{"COMPOUND": "COc1cc2c(cc1OC)[C@@]13CCN4CC5=CCO[C@H]6CC(=O)N2[C@H]1[C@H]6[C@H]5C[C@H]43", "CAT": "FALSE"}
{"COMPOUND": "CCOC(=O)NC(=S)Nc1ccccc1NC(=S)NC(=O)OCC", "CAT": "FALSE"}
{"COMPOUND": "CCC1(c2ccccc2)C(=O)N=C(O)NC1=O (stereo not given)", "CAT": "FALSE"}
{"COMPOUND": "CN/C(=N\\[N+](=O)[O-])NCC1CCOC1 (stereo not given)", "CAT": "FALSE"}
{"COMPOUND": "O=[N+]([O-])c1ccc2c3c(cccc13)CC2", "CAT": "FALSE"}
{"COMPOUND": "CCC(C)(C)c1cc(-n2nc3ccccc3n2)c(O)c(C(C)(C)CC)c1", "CAT": "FALSE"}
{"COMPOUND": "C=C(C)[C@@H]1CC=C(C=O)CC1", "CAT": "FALSE"}
{"COMPOUND": "OC(c1ccccc1)(c1ccccc1)C1CCNCC1", "CAT": "FALSE"}
{"COMPOUND": "CC1CCC(=O)O1 (stereo not given)", "CAT": "FALSE"}
{"COMPOUND": "COc1cc(OC)nc(Sc2cccc(Cl)c2C(=O)O)n1", "CAT": "FALSE"}
{"COMPOUND": "CCCCCCBr", "CAT": "FALSE"}
{"COMPOUND": "CC(N)=S", "CAT": "FALSE"}
{"COMPOUND": "CSc1nc(N=[N+]=[N-])nc(NC(C)C)n1", "CAT": "FALSE"}
{"COMPOUND": "CC1(C)CON(Cc2ccccc2Cl)C1=O", "CAT": "FALSE"}
{"COMPOUND": "CNC(=O)Oc1ccccc1C1OCCO1", "CAT": "FALSE"}
{"COMPOUND": "CC(C1CC1)C(O)(Cn1cncn1)c1ccc(Cl)cc1 (stereo not given)", "CAT": "FALSE"}
{"COMPOUND": "CCCCc1c(C)nc(NCC)[nH]c1=O", "CAT": "FALSE"}
{"COMPOUND": "O=[N+]([O-])c1cccc2c([N+](=O)[O-])cccc12", "CAT": "FALSE"}
